organism: Rattus norvegicus; assay: Open TG-GATES - Regimen: Daily Repeat; type: toxicity, organism-based, Sprague-Dawley; set-up: regimen Daily Repeat, gender Male, age 6 weeks; settings: in vivo, po, 1000 mg/kg, […], tissue Plasma, route gavage, dose level High, time 28 day
measurement.name: K (meq/L)
Give the value, in units of meq/L, as a plain number.

Some molecules with recorded K:
CCCCNC(=O)NS(=O)(=O)c1ccc(C)cc1 [TOLBUTAMIDE] :: 3.7
O=C(O)c1ccccc1Nc1ccccc1 :: 4.2
CC(S)C(=O)NCC(=O)O (centres undefined) :: 4

Field: next molecule
Q: Return K (reported value) for this molecule: CC(=O)[C@@]1(O)CC[C@H]2[C@@H]3C=C(Cl)C4=CC(=O)CC[C@]4(C)[C@H]3CC[C@@]21C
A: 3.9

Origin of values: ChEMBL document CHEMBL3885861
